test_summary: Plasma concentration in syrian hamster infected with Leishmania infantum BCN150 promastigote at 40 mg/kg/day, po for 10 days formulated with 8% v/v DMSO
Assay type: ADME, organism-based, Mesocricetus auratus
assay_readout: concentration at 240 h

Could you share which concentration at 240 h value was measured for COc1ccc2oc(-c3csc4ccccc34)c(O)c(=O)c2c1 ?
44 nM

====

Reported inhibition at 0.5 h, 10 µM is given for each of the following molecules.
measured_on: CYP2C9 (Homo sapiens)
Sequence (P11712 whole entry): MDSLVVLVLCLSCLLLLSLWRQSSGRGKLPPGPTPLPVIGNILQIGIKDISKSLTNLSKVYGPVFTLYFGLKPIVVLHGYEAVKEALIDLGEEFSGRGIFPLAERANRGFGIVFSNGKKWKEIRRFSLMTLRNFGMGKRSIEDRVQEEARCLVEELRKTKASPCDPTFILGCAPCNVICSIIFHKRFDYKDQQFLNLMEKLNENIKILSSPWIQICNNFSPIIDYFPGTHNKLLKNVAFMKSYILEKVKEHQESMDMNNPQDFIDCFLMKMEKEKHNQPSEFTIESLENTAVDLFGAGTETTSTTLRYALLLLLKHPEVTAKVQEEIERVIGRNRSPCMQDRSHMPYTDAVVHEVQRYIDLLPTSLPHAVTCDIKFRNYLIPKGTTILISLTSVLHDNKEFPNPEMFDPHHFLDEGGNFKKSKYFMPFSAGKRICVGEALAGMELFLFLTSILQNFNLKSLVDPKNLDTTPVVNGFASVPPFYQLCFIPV
test_summary: Inhibition of human microsomal CYP2C9 expressed in baculovirus infected insect cells at 10 uM using luciferin-H as substrate preincubated with enzyme/substrate mixture for 30 mins followed by further incubation with NADPH for 30 mins by CYP450 luciferase Glo assay relative to control
Type: ADME
assay_setup: probe luciferin-H
// note: answer is a bare numeric in %

O=c1c(O)c(-c2csc3ccccc23)oc2ccc(Cl)cc12
28.6
Cc1csc(-c2oc3ccc(C)cc3c(=O)c2O)c1
35.1
COc1ccc2oc(-c3cccc(-c4ccc(OC)c(OC)c4)c3)c(O)c(=O)c2c1
40.1
O=c1c(O)c(-c2csc3ccccc23)oc2cc(F)ccc12
26.5
O=c1c(O)c(-c2cccc(-c3ccc(O)c(O)c3)c2)oc2ccc(O)cc12
-22.6
COc1ccc2c(=O)c(O)c(-c3cc(C)cs3)oc2c1
59.6
COc1ccc2c(=O)c(O)c(-c3ccco3)oc2c1
46.3

Note: attention shifts to another entry.
May I ask what inhibition at 0.5 h, 10 µM has been recorded for COc1ccc2oc(-c3ccc4ncccc4c3)c(O)c(=O)c2c1 ?
-3.36
